The reported numbers originate from PubChem BioAssay (NCI).

# key: entry, value: TGI
System: HL-60(TB) leukemia
Test: NCI tumour cell line growth inhibition, 48 h

Below are worked cases with known answers.
1. Nc1nc(N)c(CCCCc2ccc([N+](=O)[O-])cc2)c(N)n1 : > 100 µM
2. C/C(=C\COP(=O)(O)OP(=O)(O)O)CC/C=C(\C)CNc1c(F)c(F)c(F)c(F)c1F : > 100 µM
3. O=[N+]([O-])c1ccc(N=P(c2ccccc2)(c2ccccc2)c2ccccc2)n2nnnc12 : > 100 µM
4. CC(C)(c1ccc(C=O)o1)c1ccc(C(C)(C)c2ccc(C=O)o2)o1 : > 100 µM
5. COC(=O)CC(=O)OC1C[C@@H]2CCC3C(C)(C)CCC[C@]3(C)C23CC[C@@]1(C)C3 (some centres not stated) : > 100 µM

For record `C=CCN(C(C)=O)c1cc(OCc2ccccc2)c2c(c1)c(C)cn2S(=O)(=O)c1ccccc1` the listed TGI is > 100 µM

For record `O=c1[nH]nc(-c2cccc([N+](=O)[O-])c2)[nH]1` the listed TGI is > 100 µM

For record `CN(N=O)c1ccc(/C=C/c2ccnc3ccccc23)cc1` the listed TGI is > 100 µM

For record `Cc1nc2nnc(CCCCCCCCc3nnc4nc(C)[nH]n34)n2[nH]1` the listed TGI is > 100 µM

For record `COc1ccc2nc(-c3ccc(N)cc3)sc2c1` the listed TGI is > 100 µM

For record `COc1ccc2c(c1O)[C@@]13CCCC=C1[C@@H](C2)N(C)CC3` the listed TGI is > 100 µM

For record `N#Cc1c(N)oc2cc3c(C#N)c(N)oc3cc12` the listed TGI is > 100 µM
